measurement-target: Alpha-2C adrenergic receptor (Homo sapiens) (UniProt P18825)
Sequence (P18825 whole entry, looked up): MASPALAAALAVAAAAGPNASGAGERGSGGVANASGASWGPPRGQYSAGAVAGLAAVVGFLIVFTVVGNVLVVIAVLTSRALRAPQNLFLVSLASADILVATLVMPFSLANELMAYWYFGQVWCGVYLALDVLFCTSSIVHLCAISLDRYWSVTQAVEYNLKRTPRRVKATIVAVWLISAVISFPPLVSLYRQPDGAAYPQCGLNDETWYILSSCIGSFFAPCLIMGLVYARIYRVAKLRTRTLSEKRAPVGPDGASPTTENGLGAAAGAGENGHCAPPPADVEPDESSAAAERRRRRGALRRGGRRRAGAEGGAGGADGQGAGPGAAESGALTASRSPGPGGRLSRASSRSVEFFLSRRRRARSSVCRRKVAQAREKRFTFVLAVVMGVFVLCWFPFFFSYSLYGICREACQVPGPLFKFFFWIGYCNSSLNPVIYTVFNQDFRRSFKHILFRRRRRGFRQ
assay-method-text: modulators of alpha2C/GIRK thallium flux, primary screen, cell-based, HEK293 alpha2C/GIRK1/2 (AID 624);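 note: slope of fluorescence ratio to pre-addition baseline per second over 15 to 24 s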
setup-conditions: thallium flux BTC fluorescence, at 10 µM, actives lie on both sides
// assign Y if slope falls strictly below 0.005, else N (ties count as N)

c1coc(-c2nnc3sc(Cc4cccs4)nn23)c1: Y
CCOc1ccc(/C(O)=C2/C(=O)C(=O)N(CCN(C)C)C2c2ccccc2)cc1Cl (stereo unspecified): N
Cc1cc(C)nc(NC2=NCC(=O)N2c2cccc(Cl)c2)n1: N
CCCCCC1CC(CC#CCN2CCOCC2)C(=O)O1 (stereo unspecified): N
CC1(C)S[C@@H]2[C@H](NC(=O)[C@H](C(=O)O)c3ccsc3)C(=O)N2[C@H]1C(=O)O: Y
CCN(CC)CCNC(=O)c1cc(Cl)c(N)cc1OC: Y
C=CCn1c(SCC(=O)OC)nc2sc3c(c2c1=O)CCN(C)C3: Y
CCC(=O)Oc1ccc(C(CC)C(CC)c2ccc(OC(=O)CC)cc2)cc1 (stereo unspecified): N

Please look at the following molecule next.
A record lists "Cc1c(CCC#N)c(N2CCCCC2)n2c(nc3ccccc32)c1C#N" . Is its slope below 0.005?
N

---

measurement-target: Voltage-gated potassium channel subunit beta-2 (Rattus norvegicus) (UniProt P62483)
Sequence (P62483 whole entry, looked up): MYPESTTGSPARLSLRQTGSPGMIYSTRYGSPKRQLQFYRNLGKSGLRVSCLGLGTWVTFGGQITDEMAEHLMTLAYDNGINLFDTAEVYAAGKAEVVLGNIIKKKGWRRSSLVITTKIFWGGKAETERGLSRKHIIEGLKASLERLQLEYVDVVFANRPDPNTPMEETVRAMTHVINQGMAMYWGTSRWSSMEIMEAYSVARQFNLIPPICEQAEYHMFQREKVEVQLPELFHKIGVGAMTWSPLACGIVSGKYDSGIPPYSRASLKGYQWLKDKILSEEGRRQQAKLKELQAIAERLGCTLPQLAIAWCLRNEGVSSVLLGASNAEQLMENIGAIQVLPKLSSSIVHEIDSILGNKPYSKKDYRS
assay-method-text: KvBeta positive modulators, primary screen, biochemical, NADPH fluorescence (AID 623);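 note: fluorescence intensity change per second fitted from 20 to 320 s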
setup-conditions: Recombinant KvBeta, NADPH fluorescence decrease slope, 10 min; at 10 µM; stronger effect = lower value
# NADPH fluorescence slope annotations
// no unit string in output, number only

In the examples that follow, each entry is paired with its recorded NADPH fluorescence slope.
Cc1nc2sc(C#N)c(N)c2c2c1CCCC2: -1e-05
Cc1c(O)c(CN2CCCCC2)cc2c3c(c(=O)oc12)CCC3: -1.2e-06
Cc1c(O)c(CN2CCCC(C)C2)cc2c3c(c(=O)oc12)CCC3 (stereo unspecified): 8.2e-07
CSC1=Nc2sc3c(c2C2=NCCN12)CC(C)(C)OC3: -4.5e-05
CC1(C)Cc2c(sc3nc4n(c(=N)c23)CCC4)CO1: -4.6e-05

response.value for "Cc1ccc(S(=O)(=O)NC(=O)NN2CCCCCC2)cc1" (field: NADPH fluorescence slope) = -5.8e-05

response.value for CC(C)(C)C1CCC2(CC1)C(C#N)=C(SCC(=O)Nc1ccccc1)NC(=O)C2C#N (stereo unspecified) (field: NADPH fluorescence slope) = 9.2e-06

response.value for "CCCCNC(=O)N1CCOCCOCCN(C(=O)NCCCC)CCOCC1" (field: NADPH fluorescence slope) = -2.2e-05

response.value for "CCCOc1ccc(Cc2nn[nH]n2)cc1" (field: NADPH fluorescence slope) = -5.5e-05

response.value for CCCOc1ccc(N2C(=O)CC(N(CCC)C(=O)CCC(=O)O)C2=O)cc1 (stereo unspecified) (field: NADPH fluorescence slope) = -9.2e-06

response.value for "Cn1c(=O)c2c(nc(Oc3ccc4c(c3)OCO4)n2Cc2ccc(F)cc2)n(C)c1=O" (field: NADPH fluorescence slope) = -2e-05

---

measurement-target: Dual specificity protein phosphatase 6 (Homo sapiens) (UniProt Q16828)
Sequence (Q16828 whole entry, looked up): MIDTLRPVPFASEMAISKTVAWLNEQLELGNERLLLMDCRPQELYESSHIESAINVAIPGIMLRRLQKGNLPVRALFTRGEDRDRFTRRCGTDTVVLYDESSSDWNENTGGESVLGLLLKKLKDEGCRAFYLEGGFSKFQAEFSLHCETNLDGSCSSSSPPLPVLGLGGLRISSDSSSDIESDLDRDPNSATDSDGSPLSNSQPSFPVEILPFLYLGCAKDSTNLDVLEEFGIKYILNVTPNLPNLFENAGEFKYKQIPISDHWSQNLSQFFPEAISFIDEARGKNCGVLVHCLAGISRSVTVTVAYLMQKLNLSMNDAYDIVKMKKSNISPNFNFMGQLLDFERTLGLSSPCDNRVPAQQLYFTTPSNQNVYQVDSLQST
assay-method-text: DUSP6 inhibitors restoring Erk phosphorylation by chemical complementation, primary imaging in DUSP6-transfected HeLa (AID 609);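 note: phospho-Erk level distribution per well compared with pooled transfected vehicle control wells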
setup-conditions: HeLa MKP-3 transfected, phospho-Erk imaging KS statistic; at 10 µM; stronger effect = higher value; cells stimulated with TPA for 15 min
# inhibition annotations
# number only, unit % dropped from output

In the examples that follow, each entry is paired with its recorded inhibition.
CCNc1nc(Oc2ccccc2)nc(OC(C)C(=O)OCC)n1 (stereo not drawn): -2.07
COc1ccc(C(=O)NCCCCCC(=O)O)cc1OC: 18.9
CCOC(=O)C1=C(CSc2nc3c(cc2C#N)CN(C)CC3)OC(N)=C(C#N)C1c1ccccc1 (stereo not drawn): -5.62
Cc1cc(OCCN2CCCCC2)nc2ccccc12: 26.3
COc1ccc2c(c1OC)C(=O)N1c3ccccc3C(=O)N(c3ccc(F)cc3)C21 (stereo not drawn): -1.12
Cc1c(/C(O)=C2/C(=O)C(=O)N(CCN3CCOCC3)C2c2cccnc2)cnn1-c1ccccc1 (stereo not drawn): 1.6e-07
C[C@@H]1CCC[C@H](C)N1NC(=O)c1ccc(Cl)c(S(N)(=O)=O)c1: 21.2
CCCC(CCC)C(=O)OC1C[C@H]2CC[C@@H](C1)[N+]2(C)C (stereo partly drawn): 9.37
CCOc1ccc(CSC(CC(=O)O)C(=O)O)cc1 (stereo not drawn): -6.86
CCC1(c2ccccc2)C(=O)NCNC1=O: 5.79

response.value for O=C(O)C1CSCN1S(=O)(=O)c1cccc2nsnc12 (stereo not drawn) (field: inhibition) = -11.5

response.value for COc1ccc2[nH]c(C)c(C(=O)CN3CC(C)OC(C)C3)c2c1 (stereo not drawn) (field: inhibition) = 3.5

response.value for "O=C1[C@@H]2[C@H](C(=O)N1O)[C@H]1C=C[C@@H]2C1" (field: inhibition) = 1.04

response.value for "NS(=O)(=O)c1cc2c(cc1Cl)NC(CSCc1ccccc1)=NS2(=O)=O" (field: inhibition) = 9.37

response.value for "CN(Cc1c(O)ccc2c1oc(=O)c1ccccc12)C1CCCCC1" (field: inhibition) = -4.27

response.value for Cc1cccc(C)c1NC(=O)C1CCCCN1C (stereo not drawn) (field: inhibition) = 3.45

---

# inhibition of aggregation annotations
assay-method-text: inhibitors of mutant huntingtin aggregation, primary screen, imaging, exon1htt(103Q)mCFP cells, high-content imaging (AID 483);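 note: compound exposure lasted 3 days before fixation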
setup-conditions: exon1htt(103Q)mCFP cell line, aggregate imaging, at 2 µM; stronger effect = higher value
Active and inactive are the calls of the source.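 Rule for the calls: active = visual image review flags a hit and inhibition of aggregation exceeds 20%; inconclusive = visual hit but inhibition at or below 20%; inactive = no hit on visual image review.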

In the examples that follow, each entry is paired with its recorded inhibition of aggregation.
O=C(O)c1cc2cc(F)ccc2[nH]1: -5.1% (inactive)
C=C1[C@@H](C)C2[C@H](Cc3ccccc3)NC(=O)[C@]23OC(=O)CC[C@H](O)CCC[C@H](C)C/C=C/[C@H]3[C@@H]1O (stereo not given in full): 25.7% (inactive)
CCOc1ccc2nc(SCC(=O)Nc3ncccn3)[nH]c2c1: -10.2% (inactive)
COC(=O)c1cc(Br)c(=O)n(Cc2cccnc2)c1: -10.7% (inactive)

Next item in the queue.
response.value for "Cn1c(-n2c(-c3ccco3)nc3ccccc3c2=O)nc2ccccc21" (field: inhibition of aggregation) = 32% (inactive)

---

assay-method-text: inhibitors of TNFa-induced NFkB p65 translocation, primary screen, imaging, HUVEC, MLSMR starter and 10KST1 sets (AID 438);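 note: compound added about 3h40 before a 20 min TNFalpha stimulation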
setup-conditions: HUVEC TNFa-induced p65 nuclear translocation; measured here: nuclei count (cytotoxicity indicator), at 2.08 µM
measurement-kind: cell count
// no unit string in output, number only

COc1ccc2c(c1)C1(C)CC(C)(C)N2C(=O)N1c1ccccc1 (stereo unspecified): 585
Cc1ccc(-c2ccc(/C=N/c3ncn[nH]3)o2)cc1Cl: 555
COc1ccc(C2CC(=O)C(C=NCCN3CCOCC3)=C(O)C2)cc1 (stereo unspecified): 379

response.value for "CCOC(=O)Cc1nnc(Nc2cccc(O)c2)c2ccccc12" (field: cell count) = 621

response.value for "c1coc(-c2nc3nc4ccccc4nc3n2-c2ccc3c(c2)OCCO3)c1" (field: cell count) = 365

response.value for CN1C(=O)N(c2ccccc2)C(Nc2nncs2)C1(C)C (stereo unspecified) (field: cell count) = 438

response.value for "Cc1ccc2[nH]c3c(NCCN4CCOCC4)ncnc3c2c1" (field: cell count) = 558

response.value for "CCN1CC=C2C(C#N)=C(N)C(C#N)(C#N)[C@H](c3cccc(OC)c3OC)[C@H]2C1" (field: cell count) = 560

response.value for "c1ccc(-c2nnc3n2N=C(c2ccc4c(c2)OCO4)CS3)nc1" (field: cell count) = 626

response.value for "CN(C)c1nc2sc3c(c2c(=O)n1C)CC(C)(C)OC3" (field: cell count) = 651

response.value for "COc1ccc(CNc2oc(COc3ccccc3Cl)nc2C#N)cc1" (field: cell count) = 436

---

assay-method-text: inhibitors of Chlamydomonas gravitaxis, primary screen, whole organism, Chlamydomonas reinhardtii, WT vs cilia-less mutant, absorbance, 96-well (AID 463189);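 note: 0% = wild type cc124 cells in DMSO and 100% = ciliumless bld1 mutant cells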
setup-conditions: OD600 absorbance, 2 days, at 10 µM, stronger effect = higher value
# inhibition annotations
# number only, unit % dropped from output

In the examples that follow, each entry is paired with its recorded inhibition.
CCC(c1c(C)n(C)n(-c2ccccc2)c1=O)c1c(C)n(C)n(-c2ccccc2)c1=O: 5
CCCCOc1ccc(OCCCN2CCOCC2)cc1: 159
O=C1C=C(O)CC(c2ccco2)C1 (configuration not stated): -1.54

response.value for "COc1cc(-c2nn3c(-c4ccco4)nnc3s2)cc(OC)c1OC" (field: inhibition) = 4.86

response.value for "CC(C)(C)c1ccc(O)c(N)c1" (field: inhibition) = 15.7

response.value for "CN1CCc2c(sc3ncn4nc(-c5ccccc5O)nc4c23)C1" (field: inhibition) = 87

response.value for "CSc1nc(O)c(Cc2ccccc2)c(=O)[nH]1" (field: inhibition) = 33.4
